These data points were gathered from the RNAGym collection of RNA variant scans (doi:10.7554/elife.80360).

B1: HDV Ribozyme (parent)
chain: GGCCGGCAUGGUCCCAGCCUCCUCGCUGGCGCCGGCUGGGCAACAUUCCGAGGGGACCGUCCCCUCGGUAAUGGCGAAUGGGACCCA

Variants of: B1
Assay: self-cleavage, relative activity (ratio to wild type); higher = more cleavage; co-transcriptional
Response key: class 1 means self-cleavage >= 0.7; class 0 means self-cleavage < 0.7.

>  <VARIANT DESIGNATION>
C41U C75U

>  <CLASS NAME>
class 0

$$$$
>  <VARIANT DESIGNATION>
C7G U60C

>  <CLASS NAME>
class 0

$$$$
>  <VARIANT DESIGNATION>
C58A G76C

>  <CLASS NAME>
class 1

$$$$
>  <VARIANT DESIGNATION>
G50C U79A

>  <CLASS NAME>
class 1

$$$$
>  <VARIANT DESIGNATION>
C3U G68A

>  <CLASS NAME>
class 1

$$$$
>  <VARIANT DESIGNATION>
G54A G76U

>  <CLASS NAME>
class 1

$$$$
>  <VARIANT DESIGNATION>
C61A G67A

>  <CLASS NAME>
class 1

$$$$
>  <VARIANT DESIGNATION>
G1C U65A

>  <CLASS NAME>
class 0

$$$$
>  <VARIANT DESIGNATION>
A45C U72C

>  <CLASS NAME>
class 0

$$$$
>  <VARIANT DESIGNATION>
C7G U23A

>  <CLASS NAME>
class 0

$$$$
>  <VARIANT DESIGNATION>
C30U G40A

>  <CLASS NAME>
class 0

$$$$
>  <VARIANT DESIGNATION>
G76U A78U

>  <CLASS NAME>
class 0

$$$$
>  <VARIANT DESIGNATION>
G31U G67C

>  <CLASS NAME>
class 0

$$$$
>  <VARIANT DESIGNATION>
G34A A42U

>  <CLASS NAME>
class 0

$$$$
>  <VARIANT DESIGNATION>
C21G C57U

>  <CLASS NAME>
class 0

$$$$
>  <VARIANT DESIGNATION>
U23G C86U

>  <CLASS NAME>
class 1

$$$$
>  <VARIANT DESIGNATION>
G34C C84A

>  <CLASS NAME>
class 0

$$$$
